src = patent EP2014310A2

Reported pKd by item:
# assay target: T1, human KDR-Fc fusion (R&D Systems #357-KD-050) (human, UniProt P35968 20-764)
# T1 construct: bought
# T1 sequence (P35968 20-764): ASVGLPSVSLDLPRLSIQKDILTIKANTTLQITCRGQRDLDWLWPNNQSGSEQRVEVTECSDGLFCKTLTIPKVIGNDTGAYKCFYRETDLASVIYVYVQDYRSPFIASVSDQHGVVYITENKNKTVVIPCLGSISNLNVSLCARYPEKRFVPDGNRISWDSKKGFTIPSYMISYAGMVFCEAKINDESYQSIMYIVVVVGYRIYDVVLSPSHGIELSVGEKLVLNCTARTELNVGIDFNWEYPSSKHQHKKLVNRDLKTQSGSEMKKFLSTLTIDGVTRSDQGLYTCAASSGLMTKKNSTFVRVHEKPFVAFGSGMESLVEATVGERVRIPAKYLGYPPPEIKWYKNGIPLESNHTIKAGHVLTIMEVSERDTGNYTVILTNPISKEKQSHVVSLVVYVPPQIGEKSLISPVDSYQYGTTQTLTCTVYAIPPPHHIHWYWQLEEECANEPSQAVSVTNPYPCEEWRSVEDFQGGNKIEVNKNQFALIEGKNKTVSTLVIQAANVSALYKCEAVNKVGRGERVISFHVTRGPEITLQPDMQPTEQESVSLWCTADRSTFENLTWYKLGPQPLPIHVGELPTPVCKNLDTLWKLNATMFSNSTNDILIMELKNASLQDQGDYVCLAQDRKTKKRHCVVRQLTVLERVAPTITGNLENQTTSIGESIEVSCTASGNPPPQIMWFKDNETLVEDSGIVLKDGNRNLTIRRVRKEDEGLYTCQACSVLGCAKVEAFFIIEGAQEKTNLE
# method summary: fluorescence anisotropy, fluorescein-labeled peptide
Bridge positions count the residues as written; N and C are the ends.
Lab note: report pKd as minus log10 of the concentration in molar units, number only.

INSERT INTO assay_data (binder, test_value) VALUES
  ('Ac-GDSRVCWEYSWGGQICLGYDPGGGK-NH2 (disulfide 6-16 (inferred); not fully specified; also: C-terminal Lys fluorescein-labeled in some assay forms) [SEQ ID NO:488]', 6.49);

Please fill in: pKd reported for Ac-GDPAQCWESNYQGIFFCDNPDPGGGK-NH2 (disulfide 6-17 (inferred); not fully specified) [SEQ ID NO:298] = 5.64

Please fill in: pKd reported for Ac-AGSKWCEQDWYYCWLLGTGGGK-NH2 (disulfide 6-13 (inferred); not fully specified) [SEQ ID NO:278] = 6.40
